The values you see were collected from PubChem BioAssay AID2314.

Assay: Cycloheximide Counterscreen for Small Molecule Inhibitors of Shiga Toxin; note: read at 38.3 µM for the half of the compounds with a filed dose; 0% is about no effect
Details: cell reporter, cycloheximide protein synthesis inhibition counterscreen; hits give high values
The campaign covered roughly 300,000 compounds. About 37,000 (12%) were called active. For the sample, actives were picked, then their nearest neighbours and some compounds at random.
Entries and their measured max response follow.
Quick note: give the figure in %, leave out the unit.

- COc1ccc(C=C(C#N)C#N)c(CSc2ccccn2)c1: -3.44
- COCCNC(=O)c1ccc(Cn2c(SCC(=O)NCC3CCCO3)nc3ccc(Br)cc3c2=O)cc1 (stereo not given): -4.2
- COc1ccc(/C=N/Nc2cc(N3CCOCC3)nc(C)n2)c(OC)c1: -1.58

Request: Using the record for O=C(COC(=O)c1c2c(nc3ccccc13)CCCC2)c1ccc(Br)s1 , report its max response.
Result: 25

Request: Using the record for C=CCNc1nc(N)c([N+](=O)[O-])c(NC2CCCCC2)n1 , report its max response.
Result: -4.11

Request: Using the record for Cc1ccc(C(=O)NCC(=O)OCc2nnc(-c3ccccc3)o2)cc1 , report its max response.
Result: 23.8

Request: Using the record for O=C(NCc1ccc(Cl)cc1)c1cc(=O)nc2sc(-c3ccccc3)nn12 , report its max response.
Result: -4.5

Request: Using the record for CCOC(=O)C(C(=O)OCC)C(C#N)c1ccccc1 (stereo not given) , report its max response.
Result: -1.71

Request: Using the record for CC(C)=C(NC(=O)c1ccco1)C(=O)NCCc1nc2ccccc2[nH]1 , report its max response.
Result: -2.53

Request: Using the record for O=C(CNC(=O)c1ccc(-c2ccccc2)cc1)OCc1ccc(Cl)cc1 , report its max response.
Result: -0.931
